Just for reference, paper PMC9482650 is where these values come from.

Molecular target: T1, NHERF3_1, Q5T2W1
T1 sequence (Q5T2W1 4-100, limits assumed, looked up): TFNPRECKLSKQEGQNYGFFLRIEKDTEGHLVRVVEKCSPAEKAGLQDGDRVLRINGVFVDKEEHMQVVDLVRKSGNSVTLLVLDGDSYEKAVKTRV
Experiment: holdup assay
Set-up: key: below the threshold = too weak to quantify, mostly under pKd 3.1 to 4
Details: plain residues with an end cap or a label only (N-terminal biotin on a linker: ado-ado)
metricName: pKd

[[record]]
binder = "GQNMTVSVVI [PRLHR, P49683]"
observedvalue = "below the threshold"

[[record]]
binder = "PEKVSNTTVV [IGSF5, Q9NSI5]"
observedvalue = "below the threshold"

[[record]]
binder = "NTALVESEDL [PALLS, Q8WX93;Q8WX93-1]"
observedvalue = "below the threshold"

[[record]]
binder = "PALKNGQYWV [CSPG4, Q6UVK1]"
observedvalue = "below the threshold"

[[record]]
binder = "KLQNPNQSVV [TYRP1, P17643]"
observedvalue = "below the threshold"

[[record]]
binder = "SQPLLVHDDV [KIT, P10721]"
observedvalue = "below the threshold"

[[record]]
binder = "LVEEEEPMNL [HDAC7, Q8WUI4]"
observedvalue = "below the threshold"

[[record]]
binder = "DFKHTKSFII [JAM2, P57087]"
observedvalue = "below the threshold"

[[record]]
binder = "VCMGDHWFDV [PRKN, O60260]"
observedvalue = "below the threshold"

